Biological target: UniProtKB P56817
Sequence (P56817 46-501): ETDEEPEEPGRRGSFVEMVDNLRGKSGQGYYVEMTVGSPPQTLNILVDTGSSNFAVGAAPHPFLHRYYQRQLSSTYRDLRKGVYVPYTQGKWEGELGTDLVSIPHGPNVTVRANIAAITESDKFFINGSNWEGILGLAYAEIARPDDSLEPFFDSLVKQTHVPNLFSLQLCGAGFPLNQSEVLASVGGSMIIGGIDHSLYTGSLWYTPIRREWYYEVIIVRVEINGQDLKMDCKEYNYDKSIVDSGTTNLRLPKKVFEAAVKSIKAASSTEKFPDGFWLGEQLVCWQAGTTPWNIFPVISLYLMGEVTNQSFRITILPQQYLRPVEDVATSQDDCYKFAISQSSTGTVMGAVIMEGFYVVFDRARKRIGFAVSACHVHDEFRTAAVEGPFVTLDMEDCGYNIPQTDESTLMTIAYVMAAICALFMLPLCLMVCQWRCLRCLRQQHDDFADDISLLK
Assay: Automated (CyclOps) biochemical assay BACE1
Details: 37 °C, 60 min, pH 5.0; read-out: Automated assay BACE1 pIC50 (converted)
# note: boundary value 80 nM maps to Condition not met; IC50 below it maps to Condition met

These recorded examples may help you get a feel for the data.
[
  {
    "Molecule": "COc1ncc(Cc2ccccc2C)c2c1C[C@]1(c3ccc(F)cc3F)N=C(N)SC[C@@H]1C2 [Compound 3]",
    "Assigned label": "Condition met"
  },
  {
    "Molecule": "COc1ccc(Cc2cnc(OC)c3c2C[C@H]2CSC(N)=N[C@@]2(c2ccc(F)cc2F)C3)cc1 [Compound 5]",
    "Assigned label": "Condition met"
  },
  {
    "Molecule": "COc1ncc(Cc2cccc(Cl)c2)c2c1C[C@]1(c3ccc(F)cc3F)N=C(N)SC[C@@H]1C2 [Compound 7]",
    "Assigned label": "Condition met"
  }
]

I wonder whether COc1cc(Cc2cnc(OC)c3c2C[C@H]2CSC(N)=N[C@@]2(c2ccc(F)cc2F)C3)cc(OC)c1 [Compound 8] has IC50 below 80 nM. Can you tell?
Condition not met

I wonder whether COc1cccc(Cc2cnc(OC)c3c2C[C@H]2CSC(N)=N[C@@]2(c2ccc(F)cc2F)C3)c1 [Compound 6] has IC50 below 80 nM. Can you tell?
Condition met
